The entries below are paired with their reported MIC.
Test system: Escherichia coli
Test: Antibacterial activity against Escherichia coli 1285 harboring beta-lactamase CMY-33 gene by Etest method
Format: functional

# annotated cases, reported MIC shown
{"columns": ["smiles data", "experimental system", "MIC"],
 "data": [
  ["CO[C@@]1(NC(=O)Cc2cccs2)C(=O)N2C(C(=O)O)=C(COC(N)=O)CS[C@@H]21", "Escherichia coli", "> 256 µg/mL"],
  ["CO/N=C(\\C(=O)N[C@@H]1C(=O)N2C(C(=O)O)=C(COC(C)=O)CS[C@H]12)c1csc(N)n1", "Escherichia coli", "> 256 µg/mL"],
  ["CC(C)(O/N=C(\\C(=O)N[C@@H]1C(=O)N2C(C(=O)[O-])=C(C[n+]3ccccc3)CS[C@H]12)c1csc(N)n1)C(=O)O", "Escherichia coli", "> 256 µg/mL"],
  ["CCN1CCN(C(=O)N[C@@H](C(=O)N[C@@H]2C(=O)N3[C@@H]2SC(C)(C)[C@@H]3C(=O)O)c2ccccc2)C(=O)C1=O", "Escherichia coli", "> 256 µg/mL"],
  ["C[C@@H](O)[C@H]1C(=O)N2C(C(=O)O)=C(S[C@@H]3CN[C@H](C(=O)Nc4cccc(C(=O)O)c4)C3)[C@H](C)[C@H]12", "Escherichia coli", "1 µg/mL"]
]}

-- ask # lookup: MIC of `CO/N=C(\C(=O)N[C@@H]1C(=O)N2C(C(=O)O)=C(COC(N)=O)CS[C@H]12)c1ccco1`
-- reply > 256 µg/mL

---

System: Escherichia coli
Assay: Antibacterial activity against Escherichia coli DH10B harboring plasmid BCSK carrying beta-lactamase CMY-2 gene by Etest method
Assay type: functional
Conditions: K-12 DH10B
Please assign false whenever MIC is at or above 20 µg/mL, and true whenever it is below.

Completed entries (count: 5):
{"columns": ["compound", "discrete label"],
 "data": [
  ["CO/N=C(\\C(=O)N[C@@H]1C(=O)N2C(C(=O)O)=C(COC(C)=O)CS[C@H]12)c1csc(N)n1", "true"],
  ["C[C@@H](O)[C@H]1C(=O)N2C(C(=O)O)=C(S[C@@H]3CN[C@H](C(=O)Nc4cccc(C(=O)O)c4)C3)[C@H](C)[C@H]12", "true"],
  ["C[C@H]1[C@H](NC(=O)/C(=N\\OC(C)(C)C(=O)O)c2csc(N)n2)C(=O)N1S(=O)(=O)O", "true"],
  ["CO[C@@]1(NC(=O)Cc2cccs2)C(=O)N2C(C(=O)O)=C(COC(N)=O)CS[C@@H]21", "false"],
  ["CO/N=C(\\C(=O)N[C@@H]1C(=O)N2C(C(=O)[O-])=C(C[N+]3(C)CCCC3)CS[C@H]12)c1csc(N)n1 [CEFEPIME]", "true"]
]}

-- ask Just wondering, is MIC of `CCN1CCN(C(=O)N[C@@H](C(=O)N[C@@H]2C(=O)N3[C@@H]2SC(C)(C)[C@@H]3C(=O)O)c2ccccc2)C(=O)C1=O` below 20 µg/mL?
-- reply false

-- ask Is MIC of `CC1(C)S[C@@H]2[C@H](NC(=O)[C@H](N)c3ccccc3)C(=O)N2[C@H]1C(=O)O` strictly below 20 µg/mL?
-- reply false

-- ask Is 20 µg/mL strictly greater than the compound's reported MIC? compound: `CC(C)(O/N=C(\C(=O)N[C@@H]1C(=O)N2C(C(=O)[O-])=C(C[n+]3ccccc3)CS[C@H]12)c1csc(N)n1)C(=O)O`
-- reply false

-- ask Please state whether MIC is below 20 µg/mL for `CO/N=C(\C(=O)N[C@@H]1C(=O)N2C(C(=O)O)=C(COC(N)=O)CS[C@H]12)c1ccco1`
-- reply false

Reference for the values: ChEMBL document CHEMBL1649512
